tested on: RXF 393 renal; assay: NCI tumour cell line growth inhibition, 48 h; in the data active = GI50 below about 0.43 µM; inactive = the rest
Outcomes: active, inactive

[
  {
    "molecule": "CCOC(=O)Nc1nc2c(F)c(F)c(F)cc2s1",
    "category-label": "inactive"
  },
  {
    "molecule": "O=C(O)c1cn(C2CC2)c2cc(N3CCN(S(=O)(=O)c4ccc(Cl)c(Cl)c4)CC3)c(F)cc2c1=O",
    "category-label": "inactive"
  },
  {
    "molecule": "COc1cc(C2c3cc4c(cc3C3OC(=O)C2C3CO)OCO4)cc(OC)c1OC (stereo unspecified)",
    "category-label": "active"
  },
  {
    "molecule": "Nc1c(C(=O)Nc2cccc3ccccc23)sc2nc3c(cc12)CCCC3",
    "category-label": "inactive"
  },
  {
    "molecule": "CC(C)(C)c1ccc(C(=O)N/N=C/c2ccc(O)cc2O)cc1",
    "category-label": "inactive"
  },
  {
    "molecule": "Clc1ccccc1-c1nc2ccccc2[nH]1",
    "category-label": "inactive"
  }
]
